# TARGET_OR_TEST_SYSTEM: hFASN enzyme (full length) (Homo sapiens, UniProt P49327)
# Construct: 10 μL hFASN enzyme (full length, 300 ng, purified in house); made in house
# Sequence (P49327 whole entry): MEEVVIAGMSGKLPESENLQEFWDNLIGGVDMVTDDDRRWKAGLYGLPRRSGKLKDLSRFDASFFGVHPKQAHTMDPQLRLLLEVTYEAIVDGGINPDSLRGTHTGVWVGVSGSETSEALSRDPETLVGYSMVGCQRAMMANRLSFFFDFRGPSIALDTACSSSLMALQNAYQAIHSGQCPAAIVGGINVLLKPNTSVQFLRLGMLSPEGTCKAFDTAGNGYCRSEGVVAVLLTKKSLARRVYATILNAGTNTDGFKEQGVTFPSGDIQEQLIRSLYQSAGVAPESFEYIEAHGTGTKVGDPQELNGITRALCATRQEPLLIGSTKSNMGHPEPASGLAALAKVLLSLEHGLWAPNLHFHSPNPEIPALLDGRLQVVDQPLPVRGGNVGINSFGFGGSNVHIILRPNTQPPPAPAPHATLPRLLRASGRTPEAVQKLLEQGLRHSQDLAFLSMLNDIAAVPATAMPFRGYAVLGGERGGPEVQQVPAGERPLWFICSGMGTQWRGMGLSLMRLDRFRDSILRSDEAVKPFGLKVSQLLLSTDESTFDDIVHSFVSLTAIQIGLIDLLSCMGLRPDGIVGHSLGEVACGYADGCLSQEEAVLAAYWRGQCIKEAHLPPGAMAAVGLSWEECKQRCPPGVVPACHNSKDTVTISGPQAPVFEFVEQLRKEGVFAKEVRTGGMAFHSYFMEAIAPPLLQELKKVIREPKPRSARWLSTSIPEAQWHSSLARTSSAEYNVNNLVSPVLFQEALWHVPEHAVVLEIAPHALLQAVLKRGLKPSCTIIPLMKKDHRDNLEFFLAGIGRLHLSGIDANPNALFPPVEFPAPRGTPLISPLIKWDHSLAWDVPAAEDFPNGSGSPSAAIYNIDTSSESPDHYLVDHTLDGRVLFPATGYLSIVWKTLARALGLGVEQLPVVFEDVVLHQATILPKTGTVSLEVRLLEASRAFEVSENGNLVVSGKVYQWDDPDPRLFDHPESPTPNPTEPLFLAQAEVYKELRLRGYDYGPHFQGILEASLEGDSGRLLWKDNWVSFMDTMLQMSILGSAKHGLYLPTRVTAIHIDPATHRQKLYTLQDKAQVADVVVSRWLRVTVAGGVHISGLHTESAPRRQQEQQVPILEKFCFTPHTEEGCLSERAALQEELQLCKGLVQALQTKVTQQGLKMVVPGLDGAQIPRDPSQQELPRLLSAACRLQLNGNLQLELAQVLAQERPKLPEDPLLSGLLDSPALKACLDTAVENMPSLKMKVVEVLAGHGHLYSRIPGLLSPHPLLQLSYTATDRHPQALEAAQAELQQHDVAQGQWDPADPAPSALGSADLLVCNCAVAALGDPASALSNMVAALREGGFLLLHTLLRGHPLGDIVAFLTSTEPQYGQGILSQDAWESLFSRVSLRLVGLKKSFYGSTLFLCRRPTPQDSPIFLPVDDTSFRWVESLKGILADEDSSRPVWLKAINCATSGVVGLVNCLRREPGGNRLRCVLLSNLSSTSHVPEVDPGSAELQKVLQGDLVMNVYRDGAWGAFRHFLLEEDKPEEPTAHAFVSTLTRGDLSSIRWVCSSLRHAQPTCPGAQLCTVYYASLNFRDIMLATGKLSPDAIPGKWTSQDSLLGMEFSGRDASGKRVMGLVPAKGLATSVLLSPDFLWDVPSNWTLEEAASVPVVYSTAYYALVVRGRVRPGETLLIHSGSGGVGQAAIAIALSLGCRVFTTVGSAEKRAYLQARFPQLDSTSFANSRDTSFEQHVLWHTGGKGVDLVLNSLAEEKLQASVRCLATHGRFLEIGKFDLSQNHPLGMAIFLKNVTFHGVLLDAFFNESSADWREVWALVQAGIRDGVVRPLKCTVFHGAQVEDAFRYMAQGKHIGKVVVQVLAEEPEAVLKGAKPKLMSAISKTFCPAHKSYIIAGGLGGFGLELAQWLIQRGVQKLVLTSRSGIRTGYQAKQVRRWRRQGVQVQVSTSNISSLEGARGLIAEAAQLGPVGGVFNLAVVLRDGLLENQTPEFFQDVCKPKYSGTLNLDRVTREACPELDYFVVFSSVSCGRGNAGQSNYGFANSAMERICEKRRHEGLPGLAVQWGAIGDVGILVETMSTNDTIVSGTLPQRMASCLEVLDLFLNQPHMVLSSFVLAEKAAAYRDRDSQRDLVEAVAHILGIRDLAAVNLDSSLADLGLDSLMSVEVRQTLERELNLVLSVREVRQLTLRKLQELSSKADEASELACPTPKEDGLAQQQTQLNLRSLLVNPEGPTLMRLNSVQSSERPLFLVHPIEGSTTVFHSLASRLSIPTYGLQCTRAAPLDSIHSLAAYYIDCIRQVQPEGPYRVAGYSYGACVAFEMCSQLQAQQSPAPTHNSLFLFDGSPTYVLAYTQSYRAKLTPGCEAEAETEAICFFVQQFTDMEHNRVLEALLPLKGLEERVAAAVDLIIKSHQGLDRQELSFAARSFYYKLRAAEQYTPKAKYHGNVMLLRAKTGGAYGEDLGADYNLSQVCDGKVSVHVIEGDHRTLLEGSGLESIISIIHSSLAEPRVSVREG
# ASSAY_TEXT: Fatty Acid Synthase (FASN) inhibition scintillation proximity assay
# Format: biochemical
# RECORDED_CONDITIONS: read-out: Human FASN % inhibition @ 10 μM, 10 μM test compound
REPORTED_METRIC: inhibition at 10 µM (%)

{"columns": ["MOLECULE", "TARGET_OR_TEST_SYSTEM", "RESULT_NUMBER"],
 "data": [
  ["Cc1cc2cc(-c3ccc(C4=NC5(CC5)C(=O)N4CC4CN(C(=O)C5CC5)C4)c(C)c3)ccc2s1 [compound 391]", "hFASN enzyme (full length) (Homo sapiens, UniProt P49327)", 104],
  ["O=C(C1CC1)N1CC[C@@H](CN2C(=O)C3(CCCC3)N=C2c2ccc(-c3cccc4ncccc34)cc2)C1 [compound 66]", "hFASN enzyme (full length) (Homo sapiens, UniProt P49327)", 106],
  ["O=C(C1CC1)N1CC(CN2C(=O)C3(CC3)N=C2c2ccc(-c3cc4cnn(CCO)c4cc3F)cc2)C1 [compound 552]", "hFASN enzyme (full length) (Homo sapiens, UniProt P49327)", 66]
]}

1 = O=C(C1CC1)N1CC(CN2C(=O)C3(CC3)N=C2c2ccc(-c3ccc4ocnc4c3)cc2)C1 [compound 52]
2 = O=C(C1CC1)N1CC[C@@H](CN2C(=O)C3(CCCC3)N=C2c2ccc(-c3ccccn3)cc2)C1 [compound 18]
3 = Cn1cc(-c2ccc(C3=NC4(CC4)C(=O)N3CC3CCN(C(=O)C4CC4)CC3)cc2)cn1 [compound 9]
4 = COC(=O)N1CC[C@@H](CN2C(=O)C3(CN(C(=O)OC)C3)N=C2c2ccc(-c3ccc4cccnc4c3)cc2)C1 [compound 963]
Output the entries ranked by inhibition at 10 µM from maximum down to minimum. Your task in answering is to list the labels in the requested order.
1, 4, 2, 3

1 = Cc1cc(-c2ccc3c(cnn3C)c2)ccc1C1=NC2(CC2)C(=O)N1CC1CN(C(=O)CC2CC2)C1 [compound 499]
2 = N#Cc1cccc(-c2ccc(C3=NC4(CCCC4)C(=O)N3C[C@@H]3CCN(C(=O)C4CC4)C3)cc2)c1 [compound 83]
Response body: label of entry with the larger inhibition at 10 µM; valid values 1 , 2 . // caller expects the label of the chosen entry
1

====

# TARGET_OR_TEST_SYSTEM: hFASN enzyme (full length) (Homo sapiens)
# Construct: 10 μL hFASN enzyme (full length, 300 ng, purified in house); made in house
# ASSAY_TEXT: Fatty Acid Synthase (FASN) inhibition scintillation proximity assay
# Format: biochemical
# RECORDED_CONDITIONS: read-out: Human FASN pIC50 (converted)
REPORTED_METRIC: IC50 (nM)

{"columns": ["COMPOUND", "REPORTED_METRIC", "RESULT_NUMBER"],
 "data": [
  ["Cn1cc(-c2ccc(-c3ccc(C4=NC5(CC5)C(=O)N4C[C@H]4CCN(C(=O)C5CC5)C4)cc3)cc2)cn1", "IC50", 158],
  ["Cc1cc(-c2ccc3cnccc3c2)ccc1C1=NC2(CCCC2)C(=O)N1C[C@@H]1CCN(C(=O)C2CC2)C1", "IC50", 22.4],
  ["O=C(C1CC1)N1CC(CN2C(=O)C3(CC3)N=C2c2ccc(-c3cc4ccccc4cn3)cc2)C1", "IC50", 170],
  ["O=C(C1CC1)N1CC[C@@H](CN2C(=O)C3(CC3)N=C2c2ccc(-c3ccc4c(c3)CCCO4)cc2)C1", "IC50", 4070],
  ["Cn1cc(-c2ccc(-c3ccc(C4=NC5(CC5)C(=O)N4C[C@@H]4CCN(C(=O)C5CC5)C4)c(F)c3)cc2)cn1", "IC50", 25.1]
]}

a = CC(O)C(=O)N1CC[C@@H](CN2C(=O)C3(CCOC3)N=C2c2ccc(-c3ccc4occc4c3)cc2)C1 (stereo partly shown)
b = O=C(C1CC1)N1CCC2(CC1)N=C(c1ccc(-c3ccc4occc4c3)cc1)N(CC1CN(C(=O)C3CC3)C1)C2=O
Response body: label of entry with the larger IC50; valid values a , b . // caller expects the label of the chosen entry
a
(a: 2880 nM, b: 562 nM)

====

# Test system: LNCaP-Vancouver prostate cells
# ASSAY_TEXT: In vitro LNCaP Vancouver prostate cell proliferation assay in lipid reduced medium
# Type: cell-based
# RECORDED_CONDITIONS: read-out: pIC50 LNCaP_Vancouver prostate cell (converted)
REPORTED_METRIC: IC50 (nM)

1 = Cc1cc(-c2ccc3cnn(C)c3c2)ccc1C1=NC2(CC2)C(=O)N1CC1CN(C(=O)C2(C)CC2)C1 [compound 335]
2 = O=C([C@H]1CCCO1)N1CC(CN2C(=O)C3(CCOC3)N=C2c2ccc(-c3ccc4cccnc4c3)cc2)C1 (stereo partly drawn) [compound 716]
Kindly compare 1 with 2 and tell me which has the lower IC50 figure. // caller expects the label of the chosen entry
1

====

# System: LNCaP-Vancouver prostate cells
# ASSAY_TEXT: In vitro LNCaP Vancouver prostate cell proliferation assay in lipid reduced medium
# Assay type: cell-based
# RECORDED_CONDITIONS: read-out: pIC50 LNCaP_Vancouver prostate cell (converted)
REPORTED_METRIC: IC50 (nM)

Some molecules with recorded IC50:
{"columns": ["MOLECULE", "IC50 / nM"],
 "data": [
  ["O=C(C1CC1)N1CC[C@@H](CN2C(=O)C3(CC3)N=C2c2ccc(-c3cccc(SC4CC4)c3)cc2F)C1", 4570],
  ["O=C(C1CC1)N1CC[C@@H](CN2C(=O)C3(CC3)N=C2c2ccc(-c3ccc4cnc(F)cc4c3)cc2)C1", 1070],
  ["O=C(C1CC1)N1CC(CN2C(=O)C3(CC3)N=C2c2ccc(-c3ccc4cnc(F)cc4c3)cc2)C1", 4170],
  ["O=C(C1CC1)N1CC[C@@H](CN2C(=O)C3(CC3)N=C2c2ccc(-c3ccc4cc[nH]c4c3)cc2)C1", 275],
  ["Cn1cc(-c2ccc(-c3ccc(C4=NC5(CC5)C(=O)N4C[C@H]4CCN(C(=O)C5CC5)C4)cc3)cc2)cn1", 525],
  ["Cn1nccc1-c1ccc(-c2ccc(C3=NC4(CC4)C(=O)N3CC3CN(C(=O)C4(C)CC4)C3)c(F)c2)cc1", 1550],
  ["Cc1cc(C2=NC3(CC3)C(=O)N2C[C@@H]2CCN(C(=O)C3CC3)C2)ccc1-c1ccc2[nH]ncc2c1", 1820],
  ["Cc1cc(-c2ccc3ccc(C(N)=O)nc3c2)ccc1C1=NC2(CC2)C(=O)N1CC1CN(C(=O)C2(C)CC2)C1", 4570]
]}

a = O=C(C1CC1)N1CC[C@@H](CN2C(=O)C3(CCCC3)N=C2c2ccc(-c3ccc4sccc4c3)cc2F)C1
b = O=C(C1CC1)N1CC[C@@H](CN2C(=O)C3(CC3)N=C2c2ccc(-c3ccc4[nH]ncc4c3)c(F)c2)C1
Response body: label of entry with the larger IC50; valid values a , b . // caller expects the label of the chosen entry
b
(b: 1150 nM, a: 617 nM)

====

# Tested on: LNCaP-Vancouver prostate cells
# ASSAY_TEXT: In vitro LNCaP Vancouver prostate cell proliferation assay in lipid reduced medium
# Type: cell-based
# RECORDED_CONDITIONS: read-out: pIC50 LNCaP_Vancouver prostate cell (converted)
REPORTED_METRIC: IC50 (nM)

Some compounds with recorded IC50:
{"columns": ["COMPOUND", "REPORTED_METRIC", "RESULT_NUMBER"],
 "data": [
  ["O=C(C1CC1)N1CC[C@@H](CN2C(=O)C3(CCCC3)N=C2c2ccc(-c3ccc4cccnc4c3)cc2F)C1 [compound 875]", "IC50", 87.1],
  ["Cc1cc(-c2ccc(-c3ccn(CC(C)C)n3)cc2)ccc1C1=NC2(CC2)C(=O)N1CC1CN(C(=O)C2(C)CC2)C1 [compound 602]", "IC50", 1480],
  ["O=C(C1CC1)N1CC[C@@H](CN2C(=O)C3(CC3)N=C2c2ccc(-c3n[nH]c4ccccc34)cc2)C1 [compound 528]", "IC50", 2340],
  ["Cn1ncc2cc(-c3ccc(C4=NC5(CCOCC5)C(=O)N4C[C@@H]4CCN(C(=O)C5CC5)C4)cc3)ccc21 [compound 672]", "IC50", 2630],
  ["Cc1cc(-c2ccc3c(c2)cc(C)n3C)ccc1C1=NC2(CC2)C(=O)N1CC1CN(C(=O)C2CC2)C1 [compound 582]", "IC50", 3240]
]}

1 = O=C(C1CC1)N1CC[C@@H](CN2C(=O)C3(CC3)N=C2c2ccc(-c3ccc4sccc4c3)c(F)c2)C1 [compound 233]
2 = Cc1cc(-c2ccc(-c3cnn(C4CC4)c3)cc2)ccc1C1=NC2(CC2)C(=O)N1CC1CN(C(=O)C2(C)CC2)C1 [compound 337]
Response body: label of entry with the larger IC50; valid values 1 , 2 . // caller expects the label of the chosen entry
1
(1: 1700 nM, 2: 79.4 nM)

1 = O=C(C1CC1)N1CC[C@@H](CN2C(=O)C3(CC3)N=C2c2ccc(-c3ccc4cccnc4c3)cc2F)C1 [compound 249]
2 = O=C(C1CCO1)N1CC(CN2C(=O)C3(CC3)N=C2c2ccc(-c3ccc4cc(F)ccc4c3)cc2F)C1 (stereo not shown) [compound 369]
3 = O=C(C1CC1)N1CC[C@@H](CN2C(=O)C3(CC3)N=C2c2ccc(-c3c[nH]c4ccccc34)cc2)C1 [compound 314]
With regard to IC50, arrange the entries in ascending order, please. Your task in answering is to list the labels in the requested order.
1, 2, 3
(1: 16.6 nM, 2: 45.7 nM, 3: 309 nM)
